assay-system: unphosphorylated-BTK kinase domain (UP-BTK), GST-tagged human BTK (389-659aa) (Homo sapiens (Human), UniProt Q06187)
Sequence (Q06187 389-659): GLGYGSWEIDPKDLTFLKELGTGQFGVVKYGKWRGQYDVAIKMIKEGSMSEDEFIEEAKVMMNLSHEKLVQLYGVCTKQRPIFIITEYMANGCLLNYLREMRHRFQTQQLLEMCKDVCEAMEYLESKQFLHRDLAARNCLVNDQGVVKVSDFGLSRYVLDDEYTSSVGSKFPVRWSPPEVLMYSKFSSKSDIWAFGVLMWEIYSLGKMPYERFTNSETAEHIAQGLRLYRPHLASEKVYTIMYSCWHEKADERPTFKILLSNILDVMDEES
assay-explanation: BTK Kinase Lanthascreen Binding Assay
test-context: compound, 50 nM Tracer 236, 2 nM anti-GST antibody, 60 minutes; pIC50 = negative log of the IC50 in molar
property: BTK_I_binding pIC50

compound=C=CC(=O)N[C@@H]1CCC[C@@H](NC(=O)c2sc3nccc4c3c2NC(=O)N4c2ccnc(-c3ccccc3)c2)C1 recorded_number=7.05
compound="Cc1cc(Oc2ccccc2)ccc1N1C(=O)Nc2c(C(=O)N[C@@H]3CCC[C@H](N)C3)sc3nccc1c23 (single isomer, unassigned)" recorded_number=6.42
compound="CNC1CC[C@H](NC(=O)c2sc3nccc4c3c2NC(=O)N4c2ccc(Oc3ccccc3)cc2C)C1 (mixture of isomers)" recorded_number=6.42
compound=N[C@@H]1CCCC[C@H]1NC(=O)c1sc2nccc3c2c1NC(=O)N3c1ccc(Oc2ccccc2)cc1 recorded_number=6.45
compound="Cc1cc(Oc2ccccc2)ccc1N1C(=O)Nc2c(C(=O)NC3CCCC3)sc3nccc1c23 [Example 82]" recorded_number=5.35
compound="Cc1cc(Oc2ccccc2)ccc1N1C(=O)Nc2c(C(=O)N[C@H]3CC[C@H](N)C3)sc3nccc1c23 (single isomer, unassigned)" recorded_number=6.45

FYI, the data here is from patent US10934310B2.
